Test system: F1 hybrid maize plants
METHOD_DESCRIPTION: efficacy field trial for quizalofop-P tolerance and clethodim sensitivity
Assay type: in vivo
CONDITIONS_USED: scale 0 to 100; 0.64 lb ai/acre at VE-V2, V4, V8; with CTP unless label says no CTP
Give average injury rating, V8 Growth Stage, 8x Quizalofop for every item shown.
Answers are plain numbers.

Would you please look over these solved cases?
>  <MOLECULE>
MON-HT3: engineered oxygenase protein, amino acid sequence SEQ ID NO:22 (protein) MHAALSPLSQRFERIAVQPLTGVLGAEITGVDLREPLDDSTWNEILDAFHTYQVIYFPGQAITNEQHIAFSRRFGPVDPVPLLKSIEGYPEVQMIRREANESGRVIGDDWHTDSTFLDAPPAAVVMYAKEVPPYGGDTLFASMYTAWETLSPTMQATIEGLNVVHSATRVFGSLYQAQNRRFSNTSVKVMDVDAGDRETVHPLVVTHPETGRKGLYVNQVYCQRIEGMSEKESEPLLSFLFAHATKPEFTCRVRWQEGQVLVWDNLCTQHFAVPDYAGKFRYLTRTTVGGVRPAR

>  <RESULT_NUMBER>
2.0

$$$$
>  <MOLECULE>
MON-HT1: engineered oxygenase protein, amino acid sequence SEQ ID NO:14 (protein) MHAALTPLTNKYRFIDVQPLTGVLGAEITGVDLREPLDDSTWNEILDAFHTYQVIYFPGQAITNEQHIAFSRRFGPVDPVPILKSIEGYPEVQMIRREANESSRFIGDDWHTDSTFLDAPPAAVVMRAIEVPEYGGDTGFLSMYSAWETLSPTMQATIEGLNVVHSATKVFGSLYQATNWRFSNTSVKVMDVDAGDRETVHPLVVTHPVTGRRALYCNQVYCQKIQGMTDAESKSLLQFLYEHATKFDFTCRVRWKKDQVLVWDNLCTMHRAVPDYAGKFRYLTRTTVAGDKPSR

>  <RESULT_NUMBER>
2.0

$$$$
>  <MOLECULE>
MON-HT6: engineered oxygenase protein, amino acid sequence SEQ ID NO:31 (protein) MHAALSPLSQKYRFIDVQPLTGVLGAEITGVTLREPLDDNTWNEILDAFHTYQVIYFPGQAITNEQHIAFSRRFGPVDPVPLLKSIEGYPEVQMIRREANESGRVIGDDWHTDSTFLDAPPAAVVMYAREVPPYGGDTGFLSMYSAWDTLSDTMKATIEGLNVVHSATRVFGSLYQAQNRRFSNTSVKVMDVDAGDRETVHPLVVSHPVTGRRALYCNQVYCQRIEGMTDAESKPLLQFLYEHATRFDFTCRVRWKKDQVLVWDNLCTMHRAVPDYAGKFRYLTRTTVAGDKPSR

>  <RESULT_NUMBER>
2.0

$$$$
>  <MOLECULE>
MON-HT5: engineered oxygenase protein, amino acid sequence SEQ ID NO:28 (protein) MHAALTPLTNKYRFIDVQPLTGVLGAEITGVDLREPLDDSTWNEILDAFHTYQVIYFPGQAITNEQHIAFSRRFGPVDPVPLLKSIEGYPEVQMIRREANESGRVIGDDWHTDSTFLDAPPAAVVMRAIEVPEYGGDTGFLSMYSAWETLSPTMQATIEGLNVVHSATKVFGSLYQATNWRFSNTSVKVMDVDAGDRETVHPLVVTHPVTGRRALYCNQVYCQKIQGMTDAESKSLLQFLYEHATKFDFTCRVRWKKDQVLVWDNLCTMHRAVPDYAGKFRYLTRTTVAGDKPSR

>  <RESULT_NUMBER>
0.0

$$$$

Attention now turns to another entry.
QUERY: Need average injury rating, V8 Growth Stage, 8x Quizalofop of MON-HT4: engineered oxygenase protein, amino acid sequence SEQ ID NO:25 (protein) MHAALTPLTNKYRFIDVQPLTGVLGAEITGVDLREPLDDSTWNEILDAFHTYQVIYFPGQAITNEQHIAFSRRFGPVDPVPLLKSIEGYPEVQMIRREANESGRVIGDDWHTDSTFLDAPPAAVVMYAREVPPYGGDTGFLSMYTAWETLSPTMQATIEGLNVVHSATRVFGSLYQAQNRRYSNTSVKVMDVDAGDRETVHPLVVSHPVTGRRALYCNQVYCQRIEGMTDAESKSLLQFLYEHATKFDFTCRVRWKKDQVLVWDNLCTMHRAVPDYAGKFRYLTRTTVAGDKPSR , thanks.
RESULT: 3.3

Every entry's value here was drawn from patent US12723255B2.
